Reported Interaction with muscarinic receptor values for the following molecules.
System: muscarinic receptor
Assay: Interaction with muscarinic receptor (displacement of 3H-QNB bound to rat cerebral cortex receptors)
Format: binding
Set-up: unit not given here
Details: concentration 10^-6 (unit not given)

# molecule, Interaction with muscarinic receptor
measured = [
    ("CC1(C)CCCN(CC(=O)N2c3ccccc3C(=O)Nc3cccnc32)C1 [Compound 10]", 0.2),
    ("O=C1Nc2cccnc2N(C(=O)CCN2CCCCCC2)c2ccccc21 [Compound 4]", 54.3),
    ("CC(C(=O)N1c2ccccc2C(=O)Nc2cccnc21)N1CCCCC1 (stereo not drawn) [Compound 1]", 3.96),
    ("CN1CCN(CC(=O)N2c3ccccc3C(=S)Nc3cccnc32)CC1 [Compound 6]", 43.9),
    ("O=C1Nc2cccnc2N(C(=O)CN2CCCCCC2)c2ccccc21 [Compound 2]", 49.7),
    ("CC1CCCCN1CC(=O)N1c2ccccc2NC(=O)c2cccnc21 (stereo not drawn) [Compound 5]", 71.7),
]

---

System: muscarinic receptor
Assay: Interaction with muscarinic receptor (displacement of 3H-QNB bound to rat cerebral cortex receptors)
Type: binding
Set-up: unit not given here
Details: concentration 10^-7 (unit not given)
Reported Interaction with muscarinic receptor values for the following compounds.

# compound, Interaction with muscarinic receptor
measured = [
    ("CC1(C)CCCN(CC(=O)N2c3ccccc3C(=O)Nc3cccnc32)C1", 0),
    ("O=C1Nc2cccnc2N(C(=O)CCN2CCCCCC2)c2ccccc21", 3.0),
    ("CC1CCCCN1CC(=O)N1c2ccccc2NC(=O)c2cccnc21 (stereo not drawn)", 14.6),
    ("O=C1Nc2cccnc2N(C(=O)CN2CCCCCC2)c2ccccc21", 12.8),
    ("CN1CCN(CC(=O)N2c3ccccc3C(=S)Nc3cccnc32)CC1", 7.5),
    ("CC(C(=O)N1c2ccccc2C(=O)Nc2cccnc21)N1CCCCC1 (stereo not drawn)", 0),
]

---

System: muscarinic receptor
Experiment: Interaction with muscarinic receptor (displacement of 3H-QNB bound to rat cerebral cortex receptors)
Assay type: binding
Set-up: unit not given here
Settings: concentration 10^-5 (unit not given)
Reported Interaction with muscarinic receptor values for the following compounds.
value.kind: Interaction with muscarinic receptor

# compound, value.kind, quantitative.result
rows = [
    ("CC1CCCCN1CC(=O)N1c2ccccc2NC(=O)c2cccnc21 (stereo not drawn) [Compound 5]", "Interaction with muscarinic receptor", 96.9),
    ("O=C1Nc2cccnc2N(C(=O)CCN2CCCCCC2)c2ccccc21 [Compound 4]", "Interaction with muscarinic receptor", 94.4),
    ("CN1CCN(CC(=O)N2c3ccccc3C(=S)Nc3cccnc32)CC1 [Compound 6]", "Interaction with muscarinic receptor", 85.5),
    ("O=C1Nc2cccnc2N(C(=O)CN2CCCCCC2)c2ccccc21 [Compound 2]", "Interaction with muscarinic receptor", 93.3),
    ("CC1(C)CCCN(CC(=O)N2c3ccccc3C(=O)Nc3cccnc32)C1 [Compound 10]", "Interaction with muscarinic receptor", 30.2),
    ("CC(C(=O)N1c2ccccc2C(=O)Nc2cccnc21)N1CCCCC1 (stereo not drawn) [Compound 1]", "Interaction with muscarinic receptor", 46.6),
]

---

Reported LD50 at 336 h values for the following molecules.
Assay: in vivo
Conditions: mouse, po, Swiss mice, 14 days observation

# molecule, LD50 at 336 h
data = [
    ("O=C1Nc2cccnc2N(C(=O)CN2CCCCCC2)c2ccccc21", "> 500 mg/kg"),
    ("CC1CCCCN1CC(=O)N1c2ccccc2NC(=O)c2cccnc21 (stereo not drawn)", "< 500 mg/kg"),
    ("O=C1Nc2cccnc2N(C(=O)CCN2CCCCCC2)c2ccccc21", "< 500 mg/kg"),
    ("CC(C(=O)N1c2ccccc2C(=O)Nc2cccnc21)N1CCCCC1 (stereo not drawn)", "> 500 mg/kg"),
    ("CC1(C)CCCN(CC(=O)N2c3ccccc3C(=O)Nc3cccnc32)C1", "> 500 mg/kg"),
    ("CN1CCN(CC(=O)N2c3ccccc3C(=S)Nc3cccnc32)CC1", "< 500 mg/kg"),
]
